Settings: in ethanol, 313.15 K
Measurement type: solubility (mole fraction)
Please give the numeric answer without any surrounding text.

What does the record list as solubility (mole fraction) for `O=C1NS(=O)(=O)c2ccccc21` ?
0.0158

---

Settings: in n-propanol, 323.15 K
Measurement type: solubility (mole fraction)
Please give the numeric answer without any surrounding text.

What does the record list as solubility (mole fraction) for `O=C1NS(=O)(=O)c2ccccc21` ?
0.0157

---

Settings: in methanol, 303.15 K
Measurement type: solubility (mole fraction)
Please give the numeric answer without any surrounding text.

What does the record list as solubility (mole fraction) for `O=C1NS(=O)(=O)c2ccccc21` ?
0.0135

---

Settings: in isobutanol, 323.15 K
Measurement type: solubility (mole fraction)
Please give the numeric answer without any surrounding text.

What does the record list as solubility (mole fraction) for `O=C1NS(=O)(=O)c2ccccc21` ?
0.0114

---

Settings: in isobutanol, 288.15 K
Measurement type: solubility (mole fraction)
Please give the numeric answer without any surrounding text.

What does the record list as solubility (mole fraction) for `O=C1NS(=O)(=O)c2ccccc21` ?
0.00279

---

Settings: in methanol, 293.15 K
Measurement type: solubility (mole fraction)
Please give the numeric answer without any surrounding text.

What does the record list as solubility (mole fraction) for `O=C1NS(=O)(=O)c2ccccc21` ?
0.00969

---

Settings: in isobutanol, 313.15 K
Measurement type: solubility (mole fraction)

What does the record list as solubility (mole fraction) for `O=C1NS(=O)(=O)c2ccccc21` ?
0.00791

---

Settings: in isopropanol, 318.15 K
Measurement type: solubility (mole fraction)

What does the record list as solubility (mole fraction) for `O=C1NS(=O)(=O)c2ccccc21` ?
0.015

---

Settings: in methanol, 288.15 K
Measurement type: solubility (mole fraction)
Please give the numeric answer without any surrounding text.

What does the record list as solubility (mole fraction) for `O=C1NS(=O)(=O)c2ccccc21` ?
0.00806

---

Settings: in isobutanol, 303.15 K
Measurement type: solubility (mole fraction)

What does the record list as solubility (mole fraction) for `O=C1NS(=O)(=O)c2ccccc21` ?
0.00538

---

Settings: in isobutanol, 318.15 K
Measurement type: solubility (mole fraction)
Please give the numeric answer without any surrounding text.

What does the record list as solubility (mole fraction) for `O=C1NS(=O)(=O)c2ccccc21` ?
0.00953

---

Settings: in isopropanol, 323.15 K
Measurement type: solubility (mole fraction)
Please give the numeric answer without any surrounding text.

What does the record list as solubility (mole fraction) for `O=C1NS(=O)(=O)c2ccccc21` ?
0.0181

---

Settings: in acetone, 318.15 K
Measurement type: solubility (mole fraction)

What does the record list as solubility (mole fraction) for `O=C1NS(=O)(=O)c2ccccc21` ?
0.0635

---

Settings: in n-propanol, 308.15 K
Measurement type: solubility (mole fraction)
Please give the numeric answer without any surrounding text.

What does the record list as solubility (mole fraction) for `O=C1NS(=O)(=O)c2ccccc21` ?
0.00902

---

Settings: in n-propanol, 303.15 K
Measurement type: solubility (mole fraction)
Please give the numeric answer without any surrounding text.

What does the record list as solubility (mole fraction) for `O=C1NS(=O)(=O)c2ccccc21` ?
0.00756

---

Settings: in ethyl acetate, 303.15 K
Measurement type: solubility (mole fraction)
Please give the numeric answer without any surrounding text.

What does the record list as solubility (mole fraction) for `O=C1NS(=O)(=O)c2ccccc21` ?
0.0241

---

Settings: in isopropanol, 313.15 K
Measurement type: solubility (mole fraction)
Please give the numeric answer without any surrounding text.

What does the record list as solubility (mole fraction) for `O=C1NS(=O)(=O)c2ccccc21` ?
0.0126

---

Settings: in acetone, 283.15 K
Measurement type: solubility (mole fraction)
Please give the numeric answer without any surrounding text.

What does the record list as solubility (mole fraction) for `O=C1NS(=O)(=O)c2ccccc21` ?
0.025

---

Settings: in methanol, 298.15 K
Measurement type: solubility (mole fraction)
Please give the numeric answer without any surrounding text.

What does the record list as solubility (mole fraction) for `O=C1NS(=O)(=O)c2ccccc21` ?
0.0115

---

Settings: in acetone, 308.15 K
Measurement type: solubility (mole fraction)

What does the record list as solubility (mole fraction) for `O=C1NS(=O)(=O)c2ccccc21` ?
0.0484

---

Settings: in isopropanol, 278.15 K
Measurement type: solubility (mole fraction)

What does the record list as solubility (mole fraction) for `O=C1NS(=O)(=O)c2ccccc21` ?
0.00382

---

Settings: in ethanol, 283.15 K
Measurement type: solubility (mole fraction)
Please give the numeric answer without any surrounding text.

What does the record list as solubility (mole fraction) for `O=C1NS(=O)(=O)c2ccccc21` ?
0.00578

---

Settings: in methanol, 308.15 K
Measurement type: solubility (mole fraction)

What does the record list as solubility (mole fraction) for `O=C1NS(=O)(=O)c2ccccc21` ?
0.0157

---

Settings: in ethyl acetate, 283.15 K
Measurement type: solubility (mole fraction)
Please give the numeric answer without any surrounding text.

What does the record list as solubility (mole fraction) for `O=C1NS(=O)(=O)c2ccccc21` ?
0.0111

---

Settings: in ethanol, 298.15 K
Measurement type: solubility (mole fraction)
Please give the numeric answer without any surrounding text.

What does the record list as solubility (mole fraction) for `O=C1NS(=O)(=O)c2ccccc21` ?
0.00964

---

Settings: in ethanol, 303.15 K
Measurement type: solubility (mole fraction)
Please give the numeric answer without any surrounding text.

What does the record list as solubility (mole fraction) for `O=C1NS(=O)(=O)c2ccccc21` ?
0.0114

---

Settings: in isopropanol, 303.15 K
Measurement type: solubility (mole fraction)
Please give the numeric answer without any surrounding text.

What does the record list as solubility (mole fraction) for `O=C1NS(=O)(=O)c2ccccc21` ?
0.00895

---

Settings: in ethanol, 288.15 K
Measurement type: solubility (mole fraction)
Please give the numeric answer without any surrounding text.

What does the record list as solubility (mole fraction) for `O=C1NS(=O)(=O)c2ccccc21` ?
0.00686

---

Settings: in ethyl acetate, 318.15 K
Measurement type: solubility (mole fraction)
Please give the numeric answer without any surrounding text.

What does the record list as solubility (mole fraction) for `O=C1NS(=O)(=O)c2ccccc21` ?
0.0401

---

Settings: in n-propanol, 313.15 K
Measurement type: solubility (mole fraction)

What does the record list as solubility (mole fraction) for `O=C1NS(=O)(=O)c2ccccc21` ?
0.0109

---

Settings: in ethyl acetate, 293.15 K
Measurement type: solubility (mole fraction)
Please give the numeric answer without any surrounding text.

What does the record list as solubility (mole fraction) for `O=C1NS(=O)(=O)c2ccccc21` ?
0.0169

---

Settings: in ethanol, 323.15 K
Measurement type: solubility (mole fraction)
Please give the numeric answer without any surrounding text.

What does the record list as solubility (mole fraction) for `O=C1NS(=O)(=O)c2ccccc21` ?
0.0231

---

Settings: in ethyl acetate, 288.15 K
Measurement type: solubility (mole fraction)
Please give the numeric answer without any surrounding text.

What does the record list as solubility (mole fraction) for `O=C1NS(=O)(=O)c2ccccc21` ?
0.0139

---

Settings: in isobutanol, 308.15 K
Measurement type: solubility (mole fraction)

What does the record list as solubility (mole fraction) for `O=C1NS(=O)(=O)c2ccccc21` ?
0.00654

---

Settings: in n-propanol, 278.15 K
Measurement type: solubility (mole fraction)
Please give the numeric answer without any surrounding text.

What does the record list as solubility (mole fraction) for `O=C1NS(=O)(=O)c2ccccc21` ?
0.00311

---

Settings: in methanol, 278.15 K
Measurement type: solubility (mole fraction)
Please give the numeric answer without any surrounding text.

What does the record list as solubility (mole fraction) for `O=C1NS(=O)(=O)c2ccccc21` ?
0.00542

---

Settings: in isobutanol, 298.15 K
Measurement type: solubility (mole fraction)

What does the record list as solubility (mole fraction) for `O=C1NS(=O)(=O)c2ccccc21` ?
0.00433

---

Settings: in n-propanol, 318.15 K
Measurement type: solubility (mole fraction)
Please give the numeric answer without any surrounding text.

What does the record list as solubility (mole fraction) for `O=C1NS(=O)(=O)c2ccccc21` ?
0.0129

---

Settings: in ethanol, 278.15 K
Measurement type: solubility (mole fraction)
Please give the numeric answer without any surrounding text.

What does the record list as solubility (mole fraction) for `O=C1NS(=O)(=O)c2ccccc21` ?
0.00486

---

Settings: in isobutanol, 278.15 K
Measurement type: solubility (mole fraction)

What does the record list as solubility (mole fraction) for `O=C1NS(=O)(=O)c2ccccc21` ?
0.00181

---

Settings: in acetone, 323.15 K
Measurement type: solubility (mole fraction)
Please give the numeric answer without any surrounding text.

What does the record list as solubility (mole fraction) for `O=C1NS(=O)(=O)c2ccccc21` ?
0.071

---

Settings: in isopropanol, 288.15 K
Measurement type: solubility (mole fraction)
Please give the numeric answer without any surrounding text.

What does the record list as solubility (mole fraction) for `O=C1NS(=O)(=O)c2ccccc21` ?
0.00532

---

Settings: in acetone, 293.15 K
Measurement type: solubility (mole fraction)

What does the record list as solubility (mole fraction) for `O=C1NS(=O)(=O)c2ccccc21` ?
0.0326

Hello, the source for this data is BigSolDB 2.1, in case you need it.
